Consider the following molecules; for each one, report its clearance.
# measurement-notes: Rat pharmacokinetics and blood/plasma partitioning (Example 1)
# Format: in vivo, Rats (Sprague-Dawley)
# assay-setup: male, Sprague-Dawley, plasma, oral 10 mg/kg or intravenous 1 mg/kg
Remember to quote the unit after the number.

Query: Name the recorded clearance for CC(C)n1nccc1-c1ncccc1COc1cccc(O)c1C=O [Compound 12] .
Reply: 0.11 mL/min/kg

Query: Name the recorded clearance for COc1cc(C=O)c(OCc2cccnc2-c2ccccc2C)cn1 [Compound 23] .
Reply: 13.7 mL/min/kg

Query: Name the recorded clearance for COc1cc(C=O)c(OCc2cccnc2-c2ccnn2CC(F)F)cn1 [Compound 22] .
Reply: 9 mL/min/kg

====

# measurement-notes: Mouse intravenous pharmacokinetics and blood/plasma partitioning
# Assay type: in vivo
# assay-setup: in vivo, mice, read-out: volume of distribution (Vss)
measured-parameter: Vd (L/kg)
Report only the number, with the unit L/kg understood.

Query: Name the recorded Vd for CC(C)n1nccc1-c1ncccc1COc1cccc(O)c1C=O [Compound 12] .
Reply: 0.1

====

# measurement-notes: Mouse intravenous pharmacokinetics and blood/plasma partitioning
# Assay type: in vivo
# assay-setup: whole blood and plasma, iv, mice, read-out: ratio of blood/plasma at peak in vivo concentration
measured-parameter: blood plasma ratio

Query: Name the recorded blood plasma ratio for CC(C)n1nccc1-c1ncccc1COc1cccc(O)c1C=O [Compound 12] .
Reply: 15.4

====

Consider the following molecules; for each one, report its blood plasma ratio.
# measurement-notes: Rat pharmacokinetics and blood/plasma partitioning (Example 1)
# Type: in vivo, Rats (Sprague-Dawley)
# assay-setup: male, Sprague-Dawley, whole blood and plasma, oral, 10 mg/kg, read-out: Blood/plasma (Ratio of exposure AUCINF)
# Protocol: This experiment was established and used in order to assess the pharmacokinetic (PK) properties of the compounds. […] Blood samples were collected at different time points. […] PK parameters were calculated by non compartmental analysis of the concentration-time profiles using WinNonLin software (Pharsight, Mountain View, Calif.). Apparent elimination half-life (t1/2) values were calculated as ln(2)/k. […] AUClast values were calculated from the dosing time to the last measurable concentration. […]
Please reply with the value in numeric form only.

Query: Name the recorded blood plasma ratio for COc1cc(C=O)c(OCc2cccnc2-c2ccccc2C)cn1 [Compound 23] .
Reply: 4

Query: Name the recorded blood plasma ratio for COc1cc(C=O)c(OCc2cccnc2-c2ccnn2CC(F)F)cn1 [Compound 22] .
Reply: 33

Query: Name the recorded blood plasma ratio for CC(C)n1nccc1-c1ncccc1COc1cccc(O)c1C=O [Compound 12] .
Reply: 55

====

# measurement-notes: Rat pharmacokinetics and blood/plasma partitioning (Example 1)
# Format: in vivo, Rats (Sprague-Dawley)
# assay-setup: male, Sprague-Dawley, in vivo, oral 10 mg/kg, intravenous 1 mg/kg
measured-parameter: bioavailability (%)
Report only the number, with the unit % understood.

Query: Name the recorded bioavailability for `CC(C)n1nccc1-c1ncccc1COc1cccc(O)c1C=O` .
Reply: 68.8

Query: Name the recorded bioavailability for `COc1cc(C=O)c(OCc2cccnc2-c2ccnn2CC(F)F)cn1` .
Reply: 6.6

Query: Name the recorded bioavailability for `COc1cc(C=O)c(OCc2cccnc2-c2ccccc2C)cn1` .
Reply: 1.8

====

# measurement-notes: Mouse intravenous pharmacokinetics and blood/plasma partitioning
# Type: in vivo
# assay-setup: whole blood and plasma, iv, mice, read-out: ratio of blood/plasma at overall exposure
measured-parameter: blood plasma ratio
Please reply with the value in numeric form only.

Query: Name the recorded blood plasma ratio for `CC(C)n1nccc1-c1ncccc1COc1cccc(O)c1C=O` .
Reply: 30

====

# measurement-notes: Pharmacokinetics after single dose of GBT440 (FIG. 1), monkey
# Type: in vivo
# assay-setup: whole blood and plasma
measured-parameter: blood plasma ratio
Please reply with the value in numeric form only.

Query: Name the recorded blood plasma ratio for CC(C)n1nccc1-c1ncccc1COc1cccc(O)c1C=O [GBT440] .
Reply: 70.9

====

# measurement-notes: Pharmacokinetics after single dose of GBT440 (FIG. 1), monkey
# Type: in vivo
# assay-setup: in vivo, IV 1 mg/kg, PO 4.25 mg/kg, read-out: Oral bioavailability (% F)
measured-parameter: bioavailability (%)
Report only the number, with the unit % understood.

Query: Name the recorded bioavailability for `CC(C)n1nccc1-c1ncccc1COc1cccc(O)c1C=O` .
Reply: 36.1

====

# measurement-notes: Pharmacokinetics after single dose of GBT440 (FIG. 1), dog
# Format: in vivo
# assay-setup: in vivo, IV 1 mg/kg, PO 2.5 mg/kg, read-out: Oral bioavailability (% F)
measured-parameter: bioavailability (%)
Report only the number, with the unit % understood.

Query: Name the recorded bioavailability for `CC(C)n1nccc1-c1ncccc1COc1cccc(O)c1C=O` .
Reply: 36.6

====

# measurement-notes: Pharmacokinetics after single dose of GBT440 (FIG. 1), rat
# Assay type: in vivo
# assay-setup: in vivo, IV 1.6 mg/kg, PO 7.2 mg/kg, read-out: Oral bioavailability (% F)
# Text: FIG. 1 graphically illustrates the high oral bioavailability, sustained exposure and dramatic RBC partitioning following single dose of GBT440. Certain relevant pharmacokinetic parameters are tabulated below: FIG. 1 in parts A, B, and C graphically illustrates the high in vivo oral bioavailability, sustained exposure and the high RBC partitioning following single dose of GBT440.
measured-parameter: bioavailability
Remember to quote the unit after the number.

Query: Name the recorded bioavailability for `CC(C)n1nccc1-c1ncccc1COc1cccc(O)c1C=O` .
Reply: 59.8%
